Reference for the values: paper PMC5405701

# Experimental Target: ERβ (Homo sapiens, UniProt Q92731)
# Sequence (Q92731 whole entry): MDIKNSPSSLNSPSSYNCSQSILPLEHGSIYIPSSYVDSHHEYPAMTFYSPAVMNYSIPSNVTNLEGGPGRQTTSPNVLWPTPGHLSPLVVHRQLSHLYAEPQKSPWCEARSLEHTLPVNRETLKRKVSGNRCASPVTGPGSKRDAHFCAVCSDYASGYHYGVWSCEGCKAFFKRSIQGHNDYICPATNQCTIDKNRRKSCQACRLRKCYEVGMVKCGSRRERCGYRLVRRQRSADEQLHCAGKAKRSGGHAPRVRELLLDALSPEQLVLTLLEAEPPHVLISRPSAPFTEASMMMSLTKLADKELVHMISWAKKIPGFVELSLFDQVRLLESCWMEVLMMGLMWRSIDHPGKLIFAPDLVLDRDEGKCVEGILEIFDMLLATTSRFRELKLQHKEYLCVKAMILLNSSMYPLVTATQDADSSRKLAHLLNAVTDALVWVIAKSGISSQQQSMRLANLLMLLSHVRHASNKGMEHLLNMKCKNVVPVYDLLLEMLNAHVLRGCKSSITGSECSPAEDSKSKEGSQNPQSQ
# Protocol Notes: cell-based
# Assay type: cell-based
# Particulars: HEK-293T, 24 h, read-out: Agonist Mode ERβ Eff (%E2)
Measure Name: Emax (%)
Give bare numbers, in %.

| Compound | Emax, % |
| --- | --- |
| Oc1ccc(-c2c[se]cc2-c2ccc(O)cc2)cc1 [Compound 4a, 3,4-Bis(4-hydroxyphenyl)selenophene] | 16 |
| Cc1cc(-c2ccc(-c3cc(C)c(O)c(C)c3)[se]2)cc(C)c1O | 38 |
| Oc1ccc(-c2cc(-c3ccc(O)cc3)c(-c3ccc(O)cc3)[se]2)cc1 [Compound 8a, 2,3,5-Tris(4-hydroxyphenyl)selenophene] | 12 |
| Oc1ccc(-c2c[se]cc2-c2ccc(O)c(F)c2)cc1F | 21 |
| Oc1ccc(F)c(-c2ccc(-c3cc(O)ccc3F)[se]2)c1 | 55 |
| Oc1cc(-c2ccc(-c3ccc(F)c(O)c3)[se]2)ccc1F | 42 |
| Cc1cc(O)ccc1-c1c[se]cc1-c1ccc(O)cc1C | 62 |

# ---- query compound ----
Prompt line: For the compound Cc1cc(-c2cc(-c3ccc(O)c(C)c3)c(-c3ccc(O)c(C)c3)[se]2)ccc1O , report Emax.
Response line: 77

----------
Provide the reported inhibition at 10 µM of each item.
# Test system: MCF-7 breast cancer cells
# Protocol Notes: antiproliferative activity, MTT assay, MCF-7
# Particulars: Homo sapiens, MCF7, 72 h, read-out: MCF-7 Inhibition (%)

| Molecule | Measure Name | Result |
| --- | --- | --- |
| Cc1cc(O)ccc1-c1c[se]cc1-c1ccc(O)cc1C | inhibition at 10 µM | 0% |
| Cc1cc(-c2ccc(-c3cc(C)c(O)c(C)c3)[se]2)cc(C)c1O | inhibition at 10 µM | 0% |
| CC/C(=C(\c1ccc(O)cc1)c1ccc(OCCN(C)C)cc1)c1ccccc1 [Compound 4OHT, 4-hydroxytamoxifen, reference compound] | inhibition at 10 µM | 81.7% |

Would you mind giving inhibition at 10 µM for every molecule in the list below?
1. Oc1ccc(-c2cc(Br)c(-c3ccc(O)c(Cl)c3)[se]2)cc1Cl
2. Oc1ccc(-c2c[se]cc2-c2ccc(O)cc2F)c(F)c1

Response line:
1. 11.3%
2. 0%

----------
Consider the following molecules; for each one, report its Emax.
# Experimental Target: ERβ (Homo sapiens, UniProt Q92731)
# Protocol Notes: cell-based
# Type: cell-based
# Particulars: HEK-293T, 24 h, read-out: Agonist Mode ERβ Eff (%E2)
Numbers only, in %.

As a guide, the following entries are already answered.
| Mol Smiles | Experimental Target | Measure Name | Recorded Number |
| --- | --- | --- | --- |
| Oc1ccc(-c2ccc(-c3ccc(O)cc3F)[se]2)c(F)c1 | ERβ (Homo sapiens, UniProt Q92731) | Emax | 71 |
| Oc1cc(-c2cc(Br)c(-c3ccc(F)c(O)c3)[se]2)ccc1F | ERβ (Homo sapiens, UniProt Q92731) | Emax | 31 |
| Cc1cc(-c2c[se]cc2-c2ccc(O)c(C)c2)ccc1O | ERβ (Homo sapiens, UniProt Q92731) | Emax | 54 |
| Oc1ccc(-c2ccc(-c3ccc(O)cc3Cl)[se]2)c(Cl)c1 | ERβ (Homo sapiens, UniProt Q92731) | Emax | 14 |
| Cc1cc(-c2cc(-c3cc(C)c(O)c(C)c3)c(-c3cc(C)c(O)c(C)c3)[se]2)cc(C)c1O | ERβ (Homo sapiens, UniProt Q92731) | Emax | 69 |
| Cc1cc(-c2cc(Br)c(-c3cc(C)c(O)c(C)c3)[se]2)cc(C)c1O | ERβ (Homo sapiens, UniProt Q92731) | Emax | 15 |
| Cc1cc(O)ccc1-c1ccc(-c2ccc(O)cc2C)[se]1 | ERβ (Homo sapiens, UniProt Q92731) | Emax | 82 |
| Cc1cc(-c2ccc(-c3ccc(O)c(C)c3)[se]2)ccc1O | ERβ (Homo sapiens, UniProt Q92731) | Emax | 24 |

// next entry
Prompt line: Specify Emax for Oc1ccc(-c2ccc(-c3ccc(O)c(Cl)c3)[se]2)cc1Cl and stop.
Response line: 22
